Measured values drawn from ChEMBL document CHEMBL1129373 for this set.

IC50 for assorted compounds
biological target: Steroid 17-alpha-hydroxylase/17,20 lyase (Homo sapiens); assay: Inhibition of human testicular steroid 17-alpha-hydroxylase; conditions: read-out: IC50
Sequence (P05093 whole entry): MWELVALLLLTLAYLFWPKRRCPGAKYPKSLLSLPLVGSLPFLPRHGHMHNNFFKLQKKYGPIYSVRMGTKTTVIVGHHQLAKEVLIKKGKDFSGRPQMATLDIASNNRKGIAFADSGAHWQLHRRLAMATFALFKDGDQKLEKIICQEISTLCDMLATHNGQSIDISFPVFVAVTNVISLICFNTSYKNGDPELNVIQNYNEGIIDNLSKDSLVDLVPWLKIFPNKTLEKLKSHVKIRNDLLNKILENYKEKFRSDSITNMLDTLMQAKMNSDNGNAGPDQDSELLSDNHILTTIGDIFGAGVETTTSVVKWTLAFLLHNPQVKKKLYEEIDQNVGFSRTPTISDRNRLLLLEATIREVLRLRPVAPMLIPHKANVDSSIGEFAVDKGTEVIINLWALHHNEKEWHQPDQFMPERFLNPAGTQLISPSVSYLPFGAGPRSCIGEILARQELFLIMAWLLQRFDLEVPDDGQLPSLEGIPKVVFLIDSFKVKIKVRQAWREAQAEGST
Report field: quantity (unit follows the number).

compound	IC50
C[C@@H](C=O)C1CCC2C3CCC4=CC(=O)CC[C@]4(C)C3CC[C@@]21C (stereo partly drawn)	230 nM
CC(=O)C1=CCC2C3CCC4=CC(=O)CC[C@]4(C)C3CC[C@]12C (stereo partly drawn)	1770 nM

Next item in the queue.
Exercise: Which IC50 value is on record for C[C@@H](C#N)C1CCC2C3CCC4=CC(=O)CC[C@]4(C)C3CC[C@@]21C (stereo partly drawn) ?
Key: 1100 nM
